What Kd was measured for each of the following?
Molecular target: T1, purified ALK protein (BLitz, Table 20) (Homo sapiens (Human), UniProt Q9UM73 19-1038, limits assumed)
T1 construct: also called purified ALK proteins
T1 sequence (Q9UM73 19-1038 limits assumed): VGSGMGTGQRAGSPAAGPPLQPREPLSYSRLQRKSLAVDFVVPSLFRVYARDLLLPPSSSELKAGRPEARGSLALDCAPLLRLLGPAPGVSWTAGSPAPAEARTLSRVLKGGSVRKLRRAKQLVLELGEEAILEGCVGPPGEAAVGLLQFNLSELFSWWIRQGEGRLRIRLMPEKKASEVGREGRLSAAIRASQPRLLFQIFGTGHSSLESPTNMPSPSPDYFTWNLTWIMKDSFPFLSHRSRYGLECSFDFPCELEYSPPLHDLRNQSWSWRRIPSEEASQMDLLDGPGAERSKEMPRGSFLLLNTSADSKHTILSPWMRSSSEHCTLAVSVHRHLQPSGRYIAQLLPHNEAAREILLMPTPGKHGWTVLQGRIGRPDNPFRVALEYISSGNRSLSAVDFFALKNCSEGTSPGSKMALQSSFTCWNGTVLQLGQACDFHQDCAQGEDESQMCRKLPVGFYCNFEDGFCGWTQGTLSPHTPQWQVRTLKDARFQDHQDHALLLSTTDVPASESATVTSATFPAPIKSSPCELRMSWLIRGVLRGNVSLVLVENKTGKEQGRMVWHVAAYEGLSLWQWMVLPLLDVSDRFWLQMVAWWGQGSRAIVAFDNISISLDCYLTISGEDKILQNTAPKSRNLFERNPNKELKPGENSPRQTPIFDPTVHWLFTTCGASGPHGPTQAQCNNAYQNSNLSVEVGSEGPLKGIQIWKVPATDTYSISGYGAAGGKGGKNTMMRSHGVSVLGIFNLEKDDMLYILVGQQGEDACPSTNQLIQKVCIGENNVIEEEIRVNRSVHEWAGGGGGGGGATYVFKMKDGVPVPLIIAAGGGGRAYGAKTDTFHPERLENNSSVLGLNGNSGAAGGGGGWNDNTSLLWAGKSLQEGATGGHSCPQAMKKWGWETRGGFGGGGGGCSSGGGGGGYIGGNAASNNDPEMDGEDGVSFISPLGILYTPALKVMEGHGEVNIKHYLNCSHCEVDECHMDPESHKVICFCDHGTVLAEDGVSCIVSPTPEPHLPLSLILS
Assay: BLI (BLitz), mAb on Protein A tip, purified ALK in solution
The reply should be a number in nM, with the unit left off.

Query block: For Ab424 (antibody, V domains shown, humanized) VH: EVQLVQSGPEVKKPGTSVKLSCKASGYTFTSYWMHWVRQARGQRLEWIGYIKPSSGYTKYNQKFKDRATLTADKSTSTAYMELSSLRSEDTAVYYCARDYYGSSSWFAYWGQGTLVTVSS VL: EIVMTQSPATLSTSPGERATLSCRASQSVSSNLAWYQQKPGQAPRALIYSASYRYSGVPARFSGSGSGTDFTLTISSVEPEDFAVYYCQQYNSYPYMYTFGQGTKLEIK , what is its reported Kd?
Result block: 247

Query block: Also, Ab434 (antibody, V domains shown, humanized) VH: EVQLVQSGAEVKKPGSSVKLSCKASGYTFSSYWMHWVKQAPGQGLEWIGYIKPSSGYTKYAQKFQGRVTLTADKSTSTAYMELSSLRSEDTAVYYCARDYYGSSSWFAYWGQGTLVTVSS VL: EIVMTQSPATLSTSPGERATLSCRASQSVSSNLAWYQQKPGQAPRALIYSASYRYSGVPARFSGSGSGTDFTLTISSVEPEDFAVYYCQQYNSYPYMYTFGQGTKLEIK please.
Result block: 329

Query block: And for Ab444 (antibody, V domains shown, humanized) VH: EVQLVQSGAEVKKPGSSVKLSCKASGYTFTSYWMHWVRQAPGQGLEWIGYIKPSSGYTKYNQKFKDKATLTADKSTSTAYMELSSLRSEDTAVYYCARDYYGSSSWFAYWGQGTLVTVSS VL: EIVMTQSQATMSTSVGERATLSCKASQNVGTNVAWYQQKPGQSPKALIYGASTRATGVPARFSGSGSGTDFTLTISSVEPEDFAVYYCQQYNSYPYMYTFGQGTKLEIK ?
Result block: 236

Query block: Subsequent entry: Ab393 (antibody, V domains shown, humanized) VH: EVQLVQSGAEVAKPGASVKLSCKASGYTFTSYWMHWVRQAPGQGLEWIGYIKPSSGYTKYNQKFKDKATLTADKSTSTAYMELRSLRSDDTAVYYCARDYYGSSSWFAYWGQGTLVTVSS VL: EIVMTQSPATLSTSPGERATLSCKASQNVGTNVAWYQQKPGQAPRALIYSASYRYSGVPARFSGSGSGTDFTLTISSVEPEDFAVYYCQQYNSYPYMYTFGQGTKLEIK
Result block: 186

Query block: And Ab445 (antibody, V domains shown, humanized) VH: EVQLVQSGAEVKKPGSSVKVSCKASGYTFSSYWMHWVRQAPGQGLEWIGYIKPSSGYTKYNQKFKDKATLTADKSTSTAYMELSSLRSEDTAVYYCARDYYGSSSWFAYWGQGTLVTVSS VL: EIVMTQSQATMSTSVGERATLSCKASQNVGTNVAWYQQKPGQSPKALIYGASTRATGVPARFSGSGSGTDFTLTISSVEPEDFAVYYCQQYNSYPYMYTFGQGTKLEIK ?
Result block: 521

Query block: Another binder: Ab385 (antibody, V domains shown, humanized) VH: EVQLVQSGAEVKKPGSSVKVSCKASGYTFSSYWMHWVRQAPGQGLEWIGYIKPSSGYTKYNQKFKDKATLTADKSTSTAYMELSSLRSEDTAVYYCARDYYGSSSWFAYWGQGTLVTVSS VL: EIVMTQSPAFMSVTVGEKVTITCKASQNVGTNVAWYQQKPDQSPKALIYSASYRYSGVPSRFSGSGSGTDFTLTISSLEAEDAATYYCQQYNSYPYMYTFGQGTKLEIK
Result block: 626

Query block: Same question, Ab409 (antibody, V domains shown, humanized) VH: EVQLVQSGAEVKKPGSSVKVSCKASGYTFSSYWMHWVRQAPGQGLEWIGYIKPSSGYTKYNQKFKDKATLTADKSTSTAYMELSSLRSEDTAVYYCARDYYGSSSWFAYWGQGTLVTVSS VL: EIVMTQSQATMSTSVGERATLSCKASQNVGTNVAWYQQKPGQSPKALIYSASYRYSGVPARFSGSGSGTDFTLTISSVEPEDFAVYYCQQYNSYPYMYTFGQGTKLEIK this time
Result block: 208

Query block: Input Ab360 (antibody, V domains shown, humanized) VH: EVQLVQSGAEVKKPGSSVKLSCKASGYTFTSYWMHWVRQAPGQGLEWIGYIKPSSGYTKYNQKFKDKATLTADKSTSTAYMELSSLRSEDTAVYYCARDYYGSSSWFAYWGQGTLVTVSS VL: EIVMTQSPAFLSVTPGEKVTITCKASQNVGTNVAWYQQKPDQAPKALIYSASYRYSGVPSRFSGSGSGTDFTLTISSLEAEDAATYYCQQYNSYPYMYTFGQGTKLEIK
Result block: 137

Query block: # iterate: Ab368 (antibody, V domains shown, humanized) VH: EVQLVQSGAEVKKPGASVKLSCKASGYTFTSYWMHWVRQAPGQGLEWIGYIKPSSGYTKYNQKFKDKATLTADKSTSTAYMELRSLRSDDTAVYYCARDYYGSSSWFAYWGQGTLVTVSS VL: DIVMTQSQAFMSVTVGEKVTITCKASQNVGTNVAWYQQKPDQAPKALIYSASYRYSGVPSRFSGSGSGTDFTLTISSLEAEDAATYYCQQYNSYPYMYTFGQGTKLEIK
Result block: 198

Query block: # iterate: Ab442 (antibody, V domains shown, humanized) VH: EVQLVQSGAEVKKPGASVKLSCKASGYTFTSYWMHWVRQAPGQGLEWIGYIKPSSGYTKYAQKLQGRVTLTADKSTSTAYMELRSLRSDDTAVYYCARDYYGSSSWFAYWGQGTLVTVSS VL: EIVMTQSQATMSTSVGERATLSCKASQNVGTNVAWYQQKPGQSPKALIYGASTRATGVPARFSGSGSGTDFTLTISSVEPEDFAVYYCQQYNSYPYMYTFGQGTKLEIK
Result block: 219
